Experiment: qHTS for Inhibitors of binding or entry into cells for Lassa Virus; also: nearly all actives have a fitted effect of over 50% in size
Conditions: Lassa virus pseudotype entry inhibition, cell reporter; series mostly up to 37.9 µM
The campaign covered roughly 300,000 compounds. About 3,700 (1.2%) were called active. Another 20% or so got no clear call; they are omitted. Calls follow the shape of the full dose curve; tested in HEK293 cells. What follows is part of a selection rich in actives, with near analogues and random picks from the rest.
Permitted responses: active, inactive

# count of solved cases: 2
compound | group
Cc1cc(C)nc(Nc2cc([N+](=O)[O-])ccc2C)n1 | inactive
COc1ccc(N2CCN(C(=O)COC(=O)c3cccc(S(=O)(=O)Nc4ccccc4OC)c3)CC2)cc1 | inactive

// outcome(item) with item = `COc1ccc(OCC(=O)NNC(=O)C2CCC2)cc1` inactive

// outcome(item) with item = `CCCn1nc(C(=O)OCc2nc(N)nc(Nc3ccccc3C)n2)c2ccccc2c1=O` inactive

// outcome(item) with item = CC(Nc1nc(C(F)(F)F)nc2ccccc12)c1cccs1 (stereo unspecified) inactive

// outcome(item) with item = `Cc1cc(C)nc(Nc2n[nH]c(-c3ccccc3N)n2)n1` active

// outcome(item) with item = CSCCC(NS(=O)(=O)c1ccccc1F)C(=O)N1CC=C(c2ccccc2)CC1 (stereo unspecified) inactive

// outcome(item) with item = CCc1ccc(C(CNc2nc(C(F)(F)F)nc3ccccc23)N(C)C)cc1 (stereo unspecified) active

// outcome(item) with item = `COC(=O)c1ccc(OC(=O)c2cnccn2)cc1` inactive

// outcome(item) with item = `CCOc1ccc(Br)cc1S(=O)(=O)Nc1ccc(S(=O)(=O)Nc2cc(C)on2)cc1` inactive

// outcome(item) with item = `O=C(Nc1ccc2nc(SCCOc3ccccc3)sc2c1)c1ccco1` inactive

* * *

Test: qHTS for Inhibitors of binding or entry into cells for Lassa Virus; also: nearly all actives have a fitted effect of over 50% in size
Details: Lassa virus pseudotype entry inhibition, cell reporter; series mostly up to 37.9 µM
The campaign covered roughly 300,000 compounds. About 3,700 (1.2%) were called active. Inconclusive results (about 20%) are left out. The call rests on the fitted dose curve; tested in HEK293 cells. The sample holds actives, similar compounds and a random draw of the others, so the mix is not that of the screen.
Permitted responses: active, inactive

# count of solved cases: 2
compound | group
C=CCN(CC=C)S(=O)(=O)c1ccc(C(=O)Nc2sc3c(c2C(N)=O)CCCCC3)cc1 | inactive
CC(=NNC(=O)c1ccc2nc[nH]c2c1)c1ccc(Br)cc1 | inactive

// outcome(item) with item = `CCCCOc1ccc(-c2nnc(-c3ccco3)o2)cc1` inactive

// outcome(item) with item = `Cn1c(C(=O)NCCN2CCc3ccccc3C2)cc2c(=O)[nH]c3ccccc3c21` active

// outcome(item) with item = CC(Nc1ccc([N+](=O)[O-])cc1[N+](=O)[O-])c1ccccc1 (stereo unspecified) inactive

// outcome(item) with item = `O=c1[nH]c(NCCO)nnc1Cc1ccc(Cl)cc1` inactive

// outcome(item) with item = CCC1([N+](=O)[O-])COC(c2ccc(C(C)C)cc2)OC1 (stereo unspecified) inactive

// outcome(item) with item = COC1=CC(=O)OC(c2ccc(OC)cc2)C1 (stereo unspecified) inactive

// outcome(item) with item = CSc1ccccc1N1CCN(CCCCCC(=O)NC2CCCc3ccccc32)CC1 (stereo unspecified) active

// outcome(item) with item = `O=C(COC(=O)c1ccc2c(c1)OCCO2)NCc1ccccc1Cl` inactive

* * *

Assay: qHTS for Inhibitors of binding or entry into cells for Lassa Virus; also: nearly all actives have a fitted effect of over 50% in size
Conditions: Lassa virus pseudotype entry inhibition, cell reporter; series mostly up to 37.9 µM
Among all 300,000 compounds or so, about 3,700 (1.2%) were called active. Roughly 20% stayed inconclusive and do not appear here. Calls follow the shape of the full dose curve; tested in HEK293 cells. Only a selection was taken, and actives are over-represented in it overall.
Permitted responses: Y (active), N (inactive)

# count of solved cases: 5
molecule | group
CCCC=Cc1ccc(CN2C(C(C)C)C(=O)N(Cc3cn(CC4CCCCC4)nn3)CCS2(=O)=O)cc1 (stereo not given) | Y
CCOc1cc(C(C(=O)NCC2CCCO2)N(C(=O)Cn2nnc3ccccc32)c2cccc(OC)c2)ccc1O (stereo not given) | N
CCC(C(=O)NC1CCCC1)N(C(=O)c1snc(C(N)=O)c1N)c1ccc2c(c1)OCCO2 (stereo not given) | N
Cc1ccccc1CS(=O)(=O)CC1Nc2ccc(C(=O)NCc3ccc(Cl)cc3)cc2NC1=O (stereo not given) | N
O=C(Nc1cccc(F)c1)NC1CCCCCCC1 | Y

// outcome(item) with item = `O=C(/C=C\NCC(=O)c1ccccc1)c1ccccc1` N
